Experiment: OD615 S. cerevisiae growth inhibition, permissive medium, pilot counter-assay, permissive growth control for S. cerevisiae lifespan shortening project (AID 705)
Settings: OD615, 24 h, at 10 µM, active compounds read high
For each record, write down the corresponding growth inhibition.
Numeric answer only, unit % assumed.

Measured growth inhibition of O=C(CSc1nc2c([nH]c3ccccc32)c(=O)n1-c1cccc(Cl)c1)N1CCOCC1 : -16.6

Entry O=C(c1c(Cl)nc2sccn12)N1CCCc2ccccc21 , growth inhibition reported as -2.11

Lab book: growth inhibition of CCCc1nc(N)nc2c1C(=O)CC(C)(C)C2 noted as -15.1

The molecule listed as COc1ccccc1N1CCN(c2cc(C)nc3nc(C)nn23)CC1 has a reported growth inhibition of -9.41

Recorded growth inhibition (molecule Cc1oc2c(c1C(=O)NC(Cc1c[nH]c3ccccc13)C(=O)O)CCCC2 (centres undefined) ): -8.56

According to the records, this molecule CCOC(=O)c1[nH]c(=O)[nH]c1COC(=O)c1cc2ccccc2o1 displays growth inhibition of -14.6

Query Cc1ccc(C)c(SCC(=O)OCC(=O)Nc2ccc(S(=O)(=O)N3CCOCC3)cc2)c1 yields growth inhibition of -20.4

Value of measured growth inhibition for the entry COc1cc(OC)nc(NC(=O)C(C)C)n1 : -1.12

Form: molecule = O=C1C(Cl)=C(N2CCOCC2)C(=O)N1c1ccccc1Cl ; growth inhibition = -8.11

// growth inhibition lookup, molecule = COC(=O)c1cc(OC)c(OC)cc1-n1cnc2cc(OC)c(OC)cc2c1=O , result: -8.81

get_value(item= Cc1ccc(-c2csc(N3CCC(C(N)=O)(N4CCCCC4)CC3)n2)cc1 , readout=growth inhibition) returns 6.21

The reported growth inhibition of the molecule O=C1C(O)CC2c3ccccc3CC3(CCCC3)N12 (centres undefined) was -14.1

Data point: CCOC(=O)c1c(/N=C/N(C)C)sc(C(=O)OC)c1C ; growth inhibition = -5.39

Recorded growth inhibition (molecule O=S(=O)(NCc1ccc2c(c1)OCO2)c1cnc[nH]1 ): -5.07
